Target: TYK2 (aa 871-1187, catalytic domain, GST-tag) (Homo sapiens, UniProt P29597)
Construct: JAK1 (aa 850-1154) and TYK2 (aa 871-1187) are expressed with an N-terminally fused GST-tag; GST (N); purchased Carna Biosciences, Inc; host or cells: baculovirus expression system
Sequence (P29597 871-1187): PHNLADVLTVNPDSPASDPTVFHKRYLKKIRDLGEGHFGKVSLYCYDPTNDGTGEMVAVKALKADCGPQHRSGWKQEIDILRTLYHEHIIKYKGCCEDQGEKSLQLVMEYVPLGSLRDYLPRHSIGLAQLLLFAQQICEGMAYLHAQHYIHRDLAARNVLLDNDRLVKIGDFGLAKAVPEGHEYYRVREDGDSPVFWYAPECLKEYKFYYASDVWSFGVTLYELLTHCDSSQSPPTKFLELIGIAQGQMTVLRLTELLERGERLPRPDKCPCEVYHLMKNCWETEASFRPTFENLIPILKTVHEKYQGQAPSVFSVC
Assay: JAK kinase assay (HTRF, phosphorylation of TK substrate-biotin), TYK2
Format: biochemical
Settings: ATP at Km (13 μM); read-out: TYK2 kinase inhibitory activity (EC50 indicator)
pEC50: −log10 of the molar value.
Record form. Attribute: pEC50. Fill in for each entry.

Item Cc1ccc2[nH]c(C(=O)N3CCN(c4ncnc5[nH]ccc45)CC34CC4)cc2c1 [Example 184] has what recorded pEC50?
6.30 to 7.00

Please look up its pEC50: CN(CC#N)C(=O)C1(C(=O)N2CCN(c3ncnc4[nH]ccc34)CC23CC3)CC1 [Example 86]
< 6.30

Name the recorded pEC50 for CC(C)(C)OC(=O)N1CCN(c2ncnc3[nH]ccc23)CC12CC2 [Example 45] .
< 6.30

# get_value(readout='pEC50', item= CC1CN(C(=O)c2ccc(C#N)cc2)C2(CC2)CN1c1ncnc2[nH]ccc12 (stereo not shown) [Example 148] )
< 6.30

* * *

Please go through the items and note down their EC50.
Target: JAK3 (catalytic domain, His-tag) (Homo sapiens)
Construct: All four purified enzymes contain only the catalytic domain; His (N); purchased Carna Biosciences, Inc; host or cells: baculovirus expression system
Sequence (P52333 822-1111 limits assumed): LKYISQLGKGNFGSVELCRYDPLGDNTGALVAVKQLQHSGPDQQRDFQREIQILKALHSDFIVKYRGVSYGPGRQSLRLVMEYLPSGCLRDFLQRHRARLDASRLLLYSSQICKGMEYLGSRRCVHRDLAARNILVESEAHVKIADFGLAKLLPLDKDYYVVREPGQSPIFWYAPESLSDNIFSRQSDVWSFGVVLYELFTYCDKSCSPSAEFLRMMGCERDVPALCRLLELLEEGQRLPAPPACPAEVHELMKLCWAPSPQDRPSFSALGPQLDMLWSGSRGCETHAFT
Assay: JAK kinase assay (HTRF, phosphorylation of TK substrate-biotin), JAK3
Assay type: biochemical
Conditions: ATP at Km (2 μM); read-out: JAK3 kinase inhibitory activity (EC50 indicator)

Give the reported EC50 for CCCS(=O)(=O)N1[C@@H]2CC[C@H]1CN(c1ncnc3[nH]ccc13)C2 (system: JAK3 (catalytic domain, His-tag) (Homo sapiens)).
> 0.5 µM

Can you look up EC50 on JAK3 (catalytic domain, His-tag) (Homo sapiens) for CC1CN(C(=O)Cc2ccc(C#N)cc2)C2(CC2)CN1c1ncnc2[nH]ccc12 (stereo not drawn) ?
< 0.1 µM

Give the reported EC50 for O=C(c1ccc(CO)cc1)N1CCN(c2ncnc3[nH]ccc23)CC12CC2 (system: JAK3 (catalytic domain, His-tag) (Homo sapiens)).
0.1 to 0.5 µM

Form field: EC50 recorded for Cc1csc(C(=O)N2CCN(c3ncnc4[nH]ccc34)CC23CC3)c1 with JAK3 (catalytic domain, His-tag) (Homo sapiens) (enter value)
< 0.1 µM

Checklist item: EC50 tested on JAK3 (catalytic domain, His-tag) (Homo sapiens), entry O=C(C1CCCO1)N1CCN(c2ncnc3[nH]ccc23)CC12CC2 (stereo not drawn) , value?
0.1 to 0.5 µM

Lookup: EC50 / JAK3 (catalytic domain, His-tag) (Homo sapiens) / O=C(CCC(F)(F)F)N1[C@@H]2CC[C@H]1CN(c1ncnc3[nH]ccc13)C2
0.1 to 0.5 µM

Give the reported EC50 for O=C(c1cc2cc(F)ccc2[nH]1)N1C2CCC1CN(c1ncnc3[nH]ccc13)C2 (system: JAK3 (catalytic domain, His-tag) (Homo sapiens)).
< 0.1 µM

What value of EC50 on JAK3 (catalytic domain, His-tag) (Homo sapiens) does CC(C)CNC(=S)N1[C@@H]2CC[C@H]1CN(c1ncnc3[nH]ccc13)C2 have?
> 0.5 µM

Provide value of EC50 for this record tested with JAK3 (catalytic domain, His-tag) (Homo sapiens): O=C(c1ccc(S(=O)(=O)NCc2cccs2)cc1)N1CCN(c2ncnc3[nH]ccc23)CC12CC2
< 0.1 µM

Short answer please: EC50, JAK3 (catalytic domain, His-tag) (Homo sapiens), entry NS(=O)(=O)c1ccc(/C=C/C(=O)N2CCN(c3ncnc4[nH]ccc34)CC23CC3)cc1
< 0.1 µM

Record lookup: for JAK3 (catalytic domain, His-tag) (Homo sapiens), what EC50 belongs to N#CCN1CCCC(C(=O)N2CCN(c3ncnc4[nH]ccc34)CC23CC3)C1 (stereo not drawn) ?
0.1 to 0.5 µM

Which EC50 is reported with JAK3 (catalytic domain, His-tag) (Homo sapiens) for this entry: Cc1nccnc1C(=O)N1[C@@H]2CC[C@H]1CN(c1ncnc3[nH]ccc13)C2 ?
0.1 to 0.5 µM

Form field - read-out: EC50; system: JAK3 (catalytic domain, His-tag) (Homo sapiens); submitted item: O=C(c1cc2c(s1)CCC2)N1C2CCC1CN(c1ncnc3[nH]ccc13)C2
0.1 to 0.5 µM

Report EC50 for O=C(c1cccc(-c2ccccc2)c1)N1CCN(c2ncnc3[nH]ccc23)CC12CC2 tested on JAK3 (catalytic domain, His-tag) (Homo sapiens).
0.1 to 0.5 µM

Requested read-out EC50, target or system JAK3 (catalytic domain, His-tag) (Homo sapiens), entry O=C(c1cnccn1)N1CCN(c2ncnc3[nH]ccc23)CC12CC2
< 0.1 µM

Param readout = EC50; param system = JAK3 (catalytic domain, His-tag) (Homo sapiens); param query = O=C1CCC(C(=O)N2CCN(c3ncnc4[nH]ccc34)CC23CC3)CC1 ; response: value
< 0.1 µM

Request: EC50, test system JAK3 (catalytic domain, His-tag) (Homo sapiens), entry NS(=O)(=O)c1cc(OCC(=O)N2C3CCC2CN(c2ncnc4[nH]ccc24)C3)ccc1Cl
< 0.1 µM

API: value(readout=EC50, system=JAK3 (catalytic domain, His-tag) (Homo sapiens)) for record O=C(c1cc2ccccc2s1)N1CCN(c2ccnc3[nH]ccc23)CC12CC2
> 0.5 µM

// fetch JAK3 (catalytic domain, His-tag) (Homo sapiens) EC50 for N#Cc1ccc(C(=O)N2CCN(c3ncnc4[nH]ccc34)CC23CC3)c(F)c1
0.1 to 0.5 µM

For JAK3 (catalytic domain, His-tag) (Homo sapiens), provide EC50 of N#Cc1cc(CC(=O)N2CCN(c3ncnc4[nH]ccc34)CC23CC3)ccc1F please.
0.1 to 0.5 µM

Notebook: pull reported EC50 for JAK3 (catalytic domain, His-tag) (Homo sapiens), entry O=C(c1ccc(C(F)(F)F)cc1)N1CCN(c2ncnc3[nH]ccc23)CC12CC2
0.1 to 0.5 µM

Recorded EC50 for CC(C)(C)OC(=O)N1CCN(c2ncnc3[nH]ccc23)CC12CC2 with JAK3 (catalytic domain, His-tag) (Homo sapiens), please?
< 0.1 µM

Enter reported EC50 observed with JAK3 (catalytic domain, His-tag) (Homo sapiens) for NS(=O)(=O)c1ccc2[nH]c(C(=O)N3CCN(c4ncnc5[nH]ccc45)CC34CC4)cc2c1
< 0.1 µM

GET /values?readout=EC50&system=JAK3 (catalytic domain, His-tag) (Homo sapiens)&item= Cc1c(C(=O)N2CCN(c3ncnc4[nH]ccc34)CC23CC3)[nH]c2ccc(F)cc12
> 0.5 µM

Return EC50 measured with JAK3 (catalytic domain, His-tag) (Homo sapiens) given this compound: N#CCC(=O)N1CCN(c2ncnc3[nH]ccc23)CC12CC2
< 0.1 µM

What reported EC50 corresponds to CS(=O)(=O)c1ccc(C(=O)N2CCN(c3ncnc4[nH]ccc34)CC23CC3)cc1N1CCCC1 on JAK3 (catalytic domain, His-tag) (Homo sapiens)?
0.1 to 0.5 µM

What is its EC50 for JAK3 (catalytic domain, His-tag) (Homo sapiens)? Entry: COC(=O)c1cc2c(N3CCN(C(=O)Cc4cccc(C#N)c4)C4(CC4)C3)ncnc2[nH]1
> 0.5 µM

For the record Cc1ccc2[nH]c(C(=O)N3C4CCC3CN(c3ncnc5[nH]ccc35)C4)cc2c1 , what value of EC50 is listed for JAK3 (catalytic domain, His-tag) (Homo sapiens)?
0.1 to 0.5 µM

Please state recorded EC50 (tested on JAK3 (catalytic domain, His-tag) (Homo sapiens)) of CCC(=O)N1[C@@H]2CC[C@H]1CN(c1ncnc3[nH]ccc13)C2
> 0.5 µM

Given the entry N#Cc1ccc2[nH]c(C(=O)N3C4CCC3CN(c3ncnc5[nH]ccc35)C4)cc2c1 , what EC50 was observed with JAK3 (catalytic domain, His-tag) (Homo sapiens)?
< 0.1 µM

Can you look up EC50 on JAK3 (catalytic domain, His-tag) (Homo sapiens) for CCOC(=O)NC(=S)N1[C@@H]2CC[C@H]1CN(c1ncnc3[nH]ccc13)C2 ?
> 0.5 µM

What measured EC50 is associated with NS(=O)(=O)c1ccc(C(=O)C(=O)N2CCN(c3ncnc4[nH]ccc34)CC23CC3)cc1 on JAK3 (catalytic domain, His-tag) (Homo sapiens)?
< 0.1 µM

API: value(readout=EC50, system=JAK3 (catalytic domain, His-tag) (Homo sapiens)) for record O=C(C1CCS(=O)(=O)CC1)N1CCN(c2ncnc3[nH]ccc23)CC12CC2
0.1 to 0.5 µM
